Answer each item with its documented activity remaining.
# Test system: Aerobactin synthetase IucA (Klebsiella pneumoniae hvKP1)
# methodSummary: Biochemical IucA enzyme inhibition primary screen of the Spectrum library (AID 1346200);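 note: 100% = wells without compound and 0% = wells lacking enzyme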
# experimentalParameters: malachite green pyrophosphate, A620, at 8 µM, stronger effect = lower value
Expressed in %, but write only the number.

# input So what's the measured activity remaining for this one? FC(F)(F)c1cccc(N2CCNCC2)c1
# output 116

# input For CC(C)[C@@H]1CC[C@@H](C)CC1=O then?
# output 120

# input Note, next up: CN(C)c1ccc(O)c2c1C[C@H]1C[C@H]3[C@H](N(C)C)C(=O)C(C(N)=O)=C(O)[C@@]3(O)C(=O)C1=C2O
# output 105

# input Now consider CC(=O)O[C@]1(C)CC[C@@]23CC1C(C)(C)[C@@H]2CC[C@H]3C and answer again.
# output 102

# input Please answer likewise for COc1ccccc1/C=C\C(=O)O
# output 90.4

# input What about O=C(/C=C/c1ccccc1)c1ccc(O)cc1O ?
# output 96.4

# input Next molecule: C#CCN(C)Cc1ccccc1
# output 122

# input O=C1O[C@@H](CO)[C@H](O)[C@@H](O)[C@@H]1O ?
# output 113

# input Same question, O=c1ccn([C@@H]2O[C@H](COP(=O)(O)OP(=O)(O)OP(=O)(O)O)[C@@H](O)[C@H]2O)c(=O)[nH]1 this time
# output 98

# input Follow-up item: C[C@]12CCC(=O)C=C1CCC1C2[C@@H](O)C[C@@]2(C)C1CC[C@]2(O)C(=O)COC(=O)CCC(=O)O (some centres undefined)
# output 123

# input Now the molecule O=C1NS(=O)(=O)c2ccccc21
# output 102

# input // same read-out, input: O=C1c2ccccc2C(=O)c2c(O)c(O)cc(O)c21
# output 118

# input // next record CCOC(=O)n1ccn(C)c1=S
# output 127

# input How about O=[N+]([O-])c1cc([As](=O)(O)O)ccc1O ?
# output 112

# input Another molecule: C[C@@H]1CC2C3CCC4=CC(=O)C=C[C@]4(C)[C@@]3(F)[C@@H](O)C[C@]2(C)[C@@]1(O)C(=O)COP(=O)(O)O (some centres undefined)
# output 114

# input Now the molecule COc1cc(NS(=O)(=O)c2ccc(N)cc2)ncn1
# output 92.3

# input And what about the molecule O=C(O)[C@H]1/C(=C/CO)O[C@@H]2CC(=O)N21 ?
# output 112

# input Now consider CCCCOc1cc(C(=O)NCCN(CC)CC)c2ccccc2n1 and answer again.
# output 103

# input Here is the next molecule: CCCCCCCCCCCCCCCC(=O)OC[C@H](NC(=O)C(Cl)Cl)[C@H](O)c1ccc([N+](=O)[O-])cc1
# output 95.5

# input Try the molecule Oc1ccc2c(c1)OCC1(O)Cc3cc(O)c(O)cc3C21 (centres undefined)
# output 91.6

# input Can you handle Cc1occc(=O)c1O next?
# output 102

# input Continue with Fc1ccc([C@@H]2CCNC[C@H]2COc2ccc3c(c2)OCO3)cc1
# output 108

# input Please answer likewise for CCCCCC/C=C\CCCCCCCc1cccc(O)c1C(=O)O
# output 112

# input // same read-out, input: COc1cc([C@@H]2c3cc4c(cc3[C@H](OC(C)=O)[C@H]3COC(=O)[C@H]23)OCO4)cc(OC)c1OC
# output 112

# input Also check O=c1cc(-c2cc(O)c(O)c(O)c2)oc2cc(O)cc(O)c12
# output 101

# input Same for CC(=O)O[C@H]1C[C@@H](OC(C)=O)C(C)(C)C2C[C@@H](OC(C)=O)[C@]3(C)C(CC[C@@]4(C)[C@H](c5ccoc5)C(=O)[C@H]5O[C@]543)[C@]21C (some centres undefined)
# output 109

# input // next record CC(N)CCCC(C)(C)O (centres undefined)
# output 123

# input Item: OC[C@@H](O)[C@@H](O[C@@H]1O[C@H](CO)[C@@H](O)[C@H](O)[C@H]1O)[C@H](O)[C@@H](O)CO
# output 96.4

# input Follow-up entry: CC1(C)C[C@@H]2C(=O)CC[C@H]3O[C@]3(C)CC[C@H]21
# output 110

# input Repeat with O=C1C=CC(=C(c2ccc(O)cc2)c2ccc(O)cc2)C=C1
# output 105

# input Same again, this time with CC(=O)N[C@@H](CC(C)C)C(=O)O
# output 93.2

# input Another molecule: O=C(O[C@@H]1Cc2c(O)cc(O)cc2O[C@@H]1c1cc(O)c(O)c(O)c1-c1c([C@H]2Oc3cc(O)cc(O)c3C[C@H]2OC(=O)c2cc(O)c(O)c(O)c2)cc(O)c(O)c1O)c1cc(O)c(O)c(O)c1
# output 111

# input Follow-up entry: NC(=O)N1c2ccccc2CC(=O)c2ccccc21
# output 123

# input Query C=C1C(=O)[C@]23[C@H](O)[C@H]1CC[C@H]2[C@@]12COC3(O)[C@H](O)[C@@H]1C(C)(C)CC[C@@H]2O next
# output 98.4

# input Please do the same for Cn1nnnc1SCC1=C(C(=O)O)N2C(=O)C(NC(=O)C(OC=O)c3ccccc3)C2SC1 (centres undefined) as well.
# output 118

# input # iterate: O=c1c(O)cc([C@H]2Oc3cc(O)cc(O)c3C[C@H]2O)cc2c([C@H]3Oc4cc(O)cc(O)c4C[C@@H]3O)cc(O)c(O)c12
# output 104

# input Repeat for the following molecule: CO[C@@H]1[C@@H](O[C@@H]2O[C@H](C)[C@@H](O[C@H]3C[C@@](C)(O)[C@H](O)[C@H](C)O3)[C@H](N(C)C)[C@H]2O)[C@@H](CC=O)C[C@@H](C)[C@@H](O[C@H]2CC[C@H](N(C)C)[C@@H](C)O2)/C=C/C=C/C[C@H](C)OC(=O)C[C@H]1O
# output 96.2

# input And the next one, CCN(CC)CCOc1ccc(/C(=C(\Cl)c2ccccc2)c2ccccc2)cc1 ?
# output 111

# input Would you mind doing O=C(CCCN1CC=C(n2c(=O)[nH]c3ccccc32)CC1)c1ccc(F)cc1 as well?
# output 111
